Below is a list of entries, each paired with its recorded Kd value.
# Test target: SARS CoV-2 PLpro (Severe acute respiratory syndrome coronavirus 2 (2019-nCoV) (SARS-CoV-2))
# Method summary: biochemical
# Format: binding
# Assay context: read-out: SPR binding assay KD
Report the figure in µM without appending any unit label.

| Molecule | Measured number |
| --- | --- |
| Cc1ccc(NC2CCN(C(=O)OC(C)(C)C)CC2)cc1C(=O)N[C@H](C)c1cccc2ccccc12 [Example 2] | 4.7 |
| Cc1ccc(NC2CN(C(=O)OC(C)(C)C)C2)cc1C(=O)N[C@H](C)c1cccc2ccccc12 [Example 1] | 16 |
| Cc1ccc(NC(=O)C2CCN(C(=O)OC(C)(C)C)CC2)cc1C(=O)N[C@H](C)c1cccc2ccccc12 [Example 4] | 31.1 |
| Cc1ccc(N)cc1C(=O)N[C@H](C)c1c(O)ccc2ccccc12 [Example 27] | 184 |
| Cc1ccc(N(C)C2CNC2)cc1C(=O)N[C@H](C)c1cccc2c1ccn2CC1CCC1 [Example 50] | 14.1 |
| Cc1ccc(N)cc1C(=O)NC(C)c1cccc2cc[nH]c12 (centres unmarked) [Example 18] | 30.3 |
| C[C@@H](NC(=O)c1cc(NC2CNC2)ccc1Cl)c1csc2ccccc12 [Example 54] | 33 |

Now, please, on to the next molecule.
Task item: Reported Kd for Cc1ccc(NC(=O)C2CN(C(=O)OC(C)(C)C)C2)cc1C(=O)N[C@H](C)c1cccc2ccccc12 [Example 3] : what is it?
Reply: 32.6
